Attribution: PubChem BioAssay

test system: Inhibin beta A chain (activin A); experiment: INHBA (activin A) binders on microarrays, primary screen, biochemical, small-molecule microarray, 635 nm fluorescence scan (AID 1107); conditions: small-molecule microarray binding, higher = more signal;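 also: mouse activin A protein probed at 4.33 µg/mL on printed slides; score merges bound-protein fluorescence near 667 nm with spot signal-to-noise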
Label satisfied for high-side composite z-score (at or above 0.4) and not satisfied for low-side composite z-score (below it).

Example cases with answers are listed next.
compound	assigned.label
COc1cc2c(cc1OC)CN(C(=O)[C@H]1[C@@H]3C(=O)O[C@@H](c4ccccc4)[C@@H](c4ccccc4)N3[C@@H](c3ccccc3OCCO)[C@]13C(=O)Nc1ccc(C#CC4(O)CCCCCC4)cc13)CC2	not satisfied
CSCC[C@@H]1NC(=O)CC=C[C@@H](C)COC(=O)[C@H](CCSC)NC(=O)CC=C[C@@H](C)COC1=O	not satisfied

Alright, here's another compound for you.
stdin: Hi team, for COC(=O)Cn1c(C(=O)N2CCCC2)cc2c1C[C@H]1CN(C(=O)c3ccccc3)[C@@](Cc3ccc(OC)cc3)(C(=O)OC)[C@@H]21 , is the recorded composite z-score at or above 0.4?
stdout: satisfied
